B1: LOXL2 (parent)
chain: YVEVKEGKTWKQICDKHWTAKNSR

- Variants of: B1
- measurement notes: protein stability index of a GFP-peptide fusion (GPS, HEK-293T) (PSI 1-6); higher = more stable;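 further: lentivirally expressed fusions sorted by FACS into six bins by GFP to DsRed ratio, PSI derived from sequencing read proportions per bin multiplied by bin number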
- condition details: c terminus: a fixed tail appended
Respond with Yes for protein stability index values of 2 and above, No for values below.

Input: Is protein stability index for K21P at or above 2?
Output: Yes

Input: Is protein stability index for N22V at or above 2?
Output: Yes

Input: Is protein stability index for K8N at or above 2?
Output: No

Input: Is protein stability index for E6D at or above 2?
Output: Yes

Input: Is protein stability index for K8Y at or above 2?
Output: Yes

Input: Is protein stability index for C14S at or above 2?
Output: No

Input: Is protein stability index for R24P at or above 2?
Output: No

Input: Is protein stability index for W18F at or above 2?
Output: Yes

Input: Is protein stability index for V4Q at or above 2?
Output: No

Input: Is protein stability index for C14Q at or above 2?
Output: No

Input: Is protein stability index for E3A at or above 2?
Output: Yes

Input: Is protein stability index for K5W at or above 2?
Output: Yes

Input: Is protein stability index for V4L at or above 2?
Output: Yes

Input: Is protein stability index for K11E at or above 2?
Output: Yes

Input: Is protein stability index for Q12G at or above 2?
Output: Yes

Input: Is protein stability index for W10S at or above 2?
Output: Yes

Input: Is protein stability index for A20L at or above 2?
Output: Yes

Input: Is protein stability index for K16Q at or above 2?
Output: Yes

Input: Is protein stability index for W10Y at or above 2?
Output: No

Input: Is protein stability index for K8E at or above 2?
Output: Yes

Input: Is protein stability index for W10G at or above 2?
Output: Yes

Input: Is protein stability index for I13M at or above 2?
Output: Yes

Input: Is protein stability index for W10I at or above 2?
Output: Yes

Input: Is protein stability index for T19A at or above 2?
Output: No

Input: Is protein stability index for R24I at or above 2?
Output: No

Input: Is protein stability index for N22M at or above 2?
Output: Yes

Input: Is protein stability index for N22L at or above 2?
Output: No

Input: Is protein stability index for T19D at or above 2?
Output: Yes

Input: Is protein stability index for K21E at or above 2?
Output: Yes

Input: Is protein stability index for A20H at or above 2?
Output: Yes

Input: Is protein stability index for G7W at or above 2?
Output: Yes

Input: Is protein stability index for S23D at or above 2?
Output: Yes

Input: Is protein stability index for G7S at or above 2?
Output: No

Input: Is protein stability index for H17M at or above 2?
Output: Yes

Input: Is protein stability index for W18H at or above 2?
Output: Yes
